test system: OVCAR-5 ovarian; test: NCI tumour cell line growth inhibition, 48 h
assay_metric: TGI

compound=CN(C)CCOc1ccc(-c2cc(-c3ccc4c(c3)CC/C4=N\O)c(-c3ccncc3)o2)cc1 system_name="OVCAR-5 ovarian" observed_measurement="6.79 µM"
compound="CC(=O)OC1[C@@H](OC(C)=O)CN(OCc2ccccc2)C[C@H]1OC(C)=O (stereo not given in full)" system_name="OVCAR-5 ovarian" observed_measurement="> 100 µM"
compound=O=c1c2c3c(sc2nc2n1N=C(c1ccc([N+](=O)[O-])cc1)CS2)CCCC3 system_name="OVCAR-5 ovarian" observed_measurement="> 100 µM"
compound="CC(=O)C1=C(C)N(c2ccccc2)C2(O)C=CC(=O)C3=C(O)c4ccccc4C(=O)C312 (stereo not given)" system_name="OVCAR-5 ovarian" observed_measurement="39.3 µM"
compound=NC(=O)SCC(=O)Nc1ccc2ncccc2c1 system_name="OVCAR-5 ovarian" observed_measurement="> 100 µM"
compound="CC(=O)OC1OC(c2ccoc2)C[C@@]12C1CCC3O[C@]3(C)[C@]1(C)C[C@H](OC(C)=O)[C@H]2C (stereo not given in full)" system_name="OVCAR-5 ovarian" observed_measurement="> 75 µM"
compound=CC(C)(C)N=CN(C=C(c1ccccc1)c1ccccc1)C1CCCCC1 system_name="OVCAR-5 ovarian" observed_measurement="> 100 µM"
compound=Nc1[nH]c(=S)c2c(N)n[nH]c2c1C(=O)Nc1ccc(Cl)cc1 system_name="OVCAR-5 ovarian" observed_measurement="> 100 µM"
compound="O=P1(Oc2ccccc2)NCc2ncccc2O1 (stereo not given)" system_name="OVCAR-5 ovarian" observed_measurement="> 100 µM"
compound=N=C(N)SCc1ccc(N=C=S)cc1 system_name="OVCAR-5 ovarian" observed_measurement="27.6 µM"

* * *

tested on: T-47D breast; test: NCI tumour cell line growth inhibition, 48 h
Listing: TGI of selected compounds
assay_metric: TGI

compound="COc1cc(C2C3=C(COC3=O)Nc3cc4c(cc32)OCO4)cc2c1OCO2 (centres undefined)" assay_metric=TGI observed_measurement="> 100 µM"
compound=C[C@]12CC[C@@H]3c4ccc(O)cc4CC[C@H]3[C@@H]1CC[C@@H]2NS(=O)(=O)c1ccc2ccccc2c1 assay_metric=TGI observed_measurement="16.3 µM"
compound=Cc1nc2ccccc2c(=O)n1/N=C/c1ccc(N(C)C)cc1 assay_metric=TGI observed_measurement="> 100 µM"
compound=Brc1ccc(-c2cc(-c3ccc4c(c3)OCO4)c(-c3cccs3)n2Cc2ccccc2)cc1 assay_metric=TGI observed_measurement="> 100 µM"
compound="N#C/C(=C\\c1cccc2cnccc12)N1N=NC2C=CC=CC21 (centres undefined)" assay_metric=TGI observed_measurement="6.4 µM"
compound=CNc1nc2c(C)ccc3[nH]c(N(C)C)nc3c-2n1 assay_metric=TGI observed_measurement="> 100 µM"
compound="Cc1cccc(C(=O)O)c1CC1NCCC2c3ccccc3NC12 (centres undefined)" assay_metric=TGI observed_measurement="> 100 µM"
compound=COc1ccc(-c2nc(-c3nc4ccc(C(F)(F)F)cc4[nH]3)c3ccccn23)cc1 assay_metric=TGI observed_measurement="> 100 µM"
compound="CC(=O)C1=C(C)N(c2ccccc2)C2(O)C=CC(=O)C3=C(O)c4ccccc4C(=O)C312 (centres undefined)" assay_metric=TGI observed_measurement="76.8 µM"
compound=COC(=O)C1=COc2c(n(C)c3ccccc23)-c2ccccc21 assay_metric=TGI observed_measurement="> 100 µM"
compound=Nc1cc2nc3ccccc3oc-2cc1=O assay_metric=TGI observed_measurement="> 100 µM"
compound="COC(=O)c1ccc(C)cc1CC1Cc2c(C)cccc2C1=O (centres undefined)" assay_metric=TGI observed_measurement="> 100 µM"
compound=O=[p+]1c2ccccc2[nH]c2ccccc21 assay_metric=TGI observed_measurement="> 100 µM"
compound=CCN(CC)CCNC(=O)c1nn(-c2ccc(Cl)cc2)c2c1CCc1cc(OC)ccc1-2 assay_metric=TGI observed_measurement="21 µM"
